target: Intercellular adhesion molecule (ICAM-1), Integrin alpha-L/beta-2 (Homo sapiens, UniProt P05107+P20701); assay: Inhibition of LFA-1 mediated JY-8 cell adhesion to ICAM-1, range (30-170); type: functional, cell-based
Sequence (P05362 whole entry, one chain of several, further chain): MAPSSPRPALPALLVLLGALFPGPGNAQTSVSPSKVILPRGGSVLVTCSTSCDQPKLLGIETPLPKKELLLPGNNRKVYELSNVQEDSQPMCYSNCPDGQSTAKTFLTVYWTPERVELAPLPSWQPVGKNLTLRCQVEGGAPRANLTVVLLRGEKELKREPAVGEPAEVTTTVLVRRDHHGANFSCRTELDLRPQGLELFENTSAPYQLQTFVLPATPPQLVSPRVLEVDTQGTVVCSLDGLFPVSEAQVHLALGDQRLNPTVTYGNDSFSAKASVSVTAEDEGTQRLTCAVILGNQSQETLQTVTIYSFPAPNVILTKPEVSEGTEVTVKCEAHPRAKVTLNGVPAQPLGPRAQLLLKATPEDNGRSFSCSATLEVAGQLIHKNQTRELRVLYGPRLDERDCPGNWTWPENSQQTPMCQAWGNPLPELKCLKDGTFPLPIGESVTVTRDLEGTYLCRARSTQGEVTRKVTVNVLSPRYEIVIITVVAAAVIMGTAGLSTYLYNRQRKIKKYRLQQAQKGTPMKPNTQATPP
Sequence (P05107 whole entry, one chain of several): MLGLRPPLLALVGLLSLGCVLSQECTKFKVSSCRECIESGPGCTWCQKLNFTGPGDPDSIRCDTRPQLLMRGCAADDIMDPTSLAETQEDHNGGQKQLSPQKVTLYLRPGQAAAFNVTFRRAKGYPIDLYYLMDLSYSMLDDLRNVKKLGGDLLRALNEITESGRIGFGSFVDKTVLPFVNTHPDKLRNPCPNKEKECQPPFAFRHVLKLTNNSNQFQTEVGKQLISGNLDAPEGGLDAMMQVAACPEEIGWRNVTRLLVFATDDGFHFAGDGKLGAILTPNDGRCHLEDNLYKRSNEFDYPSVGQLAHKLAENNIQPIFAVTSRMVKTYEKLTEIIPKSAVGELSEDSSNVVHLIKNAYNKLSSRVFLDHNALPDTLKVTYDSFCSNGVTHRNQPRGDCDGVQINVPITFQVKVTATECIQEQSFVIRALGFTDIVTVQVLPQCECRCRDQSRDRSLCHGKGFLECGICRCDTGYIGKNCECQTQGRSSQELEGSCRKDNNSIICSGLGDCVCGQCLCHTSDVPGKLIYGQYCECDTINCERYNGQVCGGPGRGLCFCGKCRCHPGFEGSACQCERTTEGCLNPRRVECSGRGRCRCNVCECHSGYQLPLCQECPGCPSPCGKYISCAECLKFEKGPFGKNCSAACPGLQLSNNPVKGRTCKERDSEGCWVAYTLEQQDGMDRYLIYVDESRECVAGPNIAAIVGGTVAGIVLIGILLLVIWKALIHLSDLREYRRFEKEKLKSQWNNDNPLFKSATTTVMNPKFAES
Endpoint: pIC50
// returns pIC50 (minus log10 of molar concentration), number only

Asked: Give reported pIC50 value for CC(=O)N1CCN(C(=O)/C=C/c2ccc(Sc3ccc4c(c3)OCCO4)c(C(F)(F)F)c2)CC1
Given back: 7.22

====

target: Integrin alpha-L (Homo sapiens, UniProt P20701); test: Inhibition of intercellular adhesion molecule-1 (ICAM-1) binding to recombinant LFA-1, range(100-200)
Sequence (P20701 whole entry): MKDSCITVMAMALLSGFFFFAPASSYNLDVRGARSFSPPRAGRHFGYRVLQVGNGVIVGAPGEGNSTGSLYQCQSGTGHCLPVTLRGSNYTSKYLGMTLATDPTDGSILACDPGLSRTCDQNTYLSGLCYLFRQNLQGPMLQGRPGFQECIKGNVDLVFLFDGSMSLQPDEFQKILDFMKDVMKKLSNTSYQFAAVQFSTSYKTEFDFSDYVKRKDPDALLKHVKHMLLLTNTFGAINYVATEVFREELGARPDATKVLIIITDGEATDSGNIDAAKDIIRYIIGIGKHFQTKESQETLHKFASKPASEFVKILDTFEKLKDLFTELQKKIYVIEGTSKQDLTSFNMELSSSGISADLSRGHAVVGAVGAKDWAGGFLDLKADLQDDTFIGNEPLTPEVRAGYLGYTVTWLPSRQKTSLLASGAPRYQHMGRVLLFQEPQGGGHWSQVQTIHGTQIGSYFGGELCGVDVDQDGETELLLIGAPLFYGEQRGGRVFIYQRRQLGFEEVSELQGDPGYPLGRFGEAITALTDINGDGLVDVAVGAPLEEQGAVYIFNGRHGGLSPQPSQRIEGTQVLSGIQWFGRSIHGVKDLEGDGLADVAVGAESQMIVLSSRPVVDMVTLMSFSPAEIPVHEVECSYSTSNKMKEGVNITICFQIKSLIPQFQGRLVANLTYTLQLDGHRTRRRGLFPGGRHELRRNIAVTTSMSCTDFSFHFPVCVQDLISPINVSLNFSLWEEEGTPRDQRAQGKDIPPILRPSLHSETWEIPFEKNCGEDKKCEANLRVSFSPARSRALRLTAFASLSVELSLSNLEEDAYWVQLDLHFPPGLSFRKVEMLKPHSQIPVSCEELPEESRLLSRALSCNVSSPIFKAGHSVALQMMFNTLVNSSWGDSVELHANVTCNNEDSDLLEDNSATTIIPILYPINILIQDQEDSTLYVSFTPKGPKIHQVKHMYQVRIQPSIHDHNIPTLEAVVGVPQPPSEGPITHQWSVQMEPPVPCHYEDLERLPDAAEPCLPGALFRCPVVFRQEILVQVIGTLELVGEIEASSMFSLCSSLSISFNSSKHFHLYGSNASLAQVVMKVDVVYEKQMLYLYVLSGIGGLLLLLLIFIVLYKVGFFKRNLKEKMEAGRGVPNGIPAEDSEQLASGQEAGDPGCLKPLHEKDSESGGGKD
Endpoint: pIC50
// returns pIC50 (minus log10 of molar concentration), number only

Asked: Give reported pIC50 value for CC(=O)N1CCN(C(=O)/C=C/c2ccc(Sc3ccc(Cl)cc3Cl)c(Cl)c2)CC1
Given back: 6.85

Data provenance is ChEMBL document CHEMBL1134304.
